System: CAKI-1 renal
Experiment: NCI tumour cell line growth inhibition, 48 h
assayMetric: TGI

Please report the recorded TGI for CC(=O)c1cccc(NC(=O)/C(=N\NC(C)(C)C)c2c(O)c3ccccc3oc2=O)c1 .
> 100 µM

Please report the recorded TGI for COc1cc(N=CN(C)C)c2ncccc2c1 .
> 100 µM

Next:
Please report the recorded TGI for CCCN(CCCCC(NC(C)=O)C(=O)NCc1ccccc1)C(=O)N(C)N=O (stereo unspecified) .
> 100 µM

Please report the recorded TGI for O=C(Nc1ccccc1O)c1cccc(NC2=C(Cl)C(=O)N(Cc3ccccc3)C2=O)c1 .
12.7 µM

Please report the recorded TGI for OC12c3ccccc3C1(N1CCOCC1)CCCCC21OCCCO1 (stereo unspecified) .
> 100 µM
